Reported values of pKi for individual entries
test system: calpain-I isolated from human erythrocytes (Homo sapiens)
Construct: calpain-I—isolated from human erythrocytes
Sequence (P07384 whole entry): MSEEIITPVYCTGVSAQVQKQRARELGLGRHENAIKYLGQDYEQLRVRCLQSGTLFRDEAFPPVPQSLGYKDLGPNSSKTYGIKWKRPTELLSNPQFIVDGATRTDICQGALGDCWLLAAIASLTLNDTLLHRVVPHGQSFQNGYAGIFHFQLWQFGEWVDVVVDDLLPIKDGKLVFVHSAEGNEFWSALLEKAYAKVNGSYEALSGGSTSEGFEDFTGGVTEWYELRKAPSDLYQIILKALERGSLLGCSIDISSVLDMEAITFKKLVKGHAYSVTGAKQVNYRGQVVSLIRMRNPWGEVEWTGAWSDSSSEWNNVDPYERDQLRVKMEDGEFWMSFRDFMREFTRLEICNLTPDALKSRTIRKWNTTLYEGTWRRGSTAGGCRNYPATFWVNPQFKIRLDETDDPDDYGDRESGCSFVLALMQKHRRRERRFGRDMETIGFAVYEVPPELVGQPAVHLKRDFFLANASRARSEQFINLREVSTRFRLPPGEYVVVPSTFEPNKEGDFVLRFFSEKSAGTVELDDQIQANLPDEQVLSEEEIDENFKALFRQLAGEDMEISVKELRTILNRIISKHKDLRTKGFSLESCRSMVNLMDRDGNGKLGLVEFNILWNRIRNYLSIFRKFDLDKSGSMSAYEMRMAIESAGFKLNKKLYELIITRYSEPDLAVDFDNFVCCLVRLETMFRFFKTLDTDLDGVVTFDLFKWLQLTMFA
Sequence (P04632 whole entry partner): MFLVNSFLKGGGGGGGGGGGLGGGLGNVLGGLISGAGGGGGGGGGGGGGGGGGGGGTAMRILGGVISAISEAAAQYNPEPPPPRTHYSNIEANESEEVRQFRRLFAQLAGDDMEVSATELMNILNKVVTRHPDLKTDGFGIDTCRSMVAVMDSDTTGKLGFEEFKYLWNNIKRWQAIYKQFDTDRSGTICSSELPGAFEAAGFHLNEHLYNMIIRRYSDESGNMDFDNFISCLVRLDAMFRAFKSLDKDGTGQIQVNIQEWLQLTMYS
test description: Calpain I enzyme inhibition in vitro (kinetic fluorescence assay)
experimental parameters: apparent Ki from IC50 (Cheng-Prussoff); 20 nM calpain-I, 100 μM Suc-Leu-Tyr-AMC, pH 7.3, room temperature
Method: Testing for blockade of the corresponding enzymic activities was carried out by means of kinetic fluorescence assays (excitation 390 nm, emission 460 nm). Apparent Ki values were calculated from the experimentally determined IC50 values by the Cheng-Prussoff relation assuming a reversible competitive enzyme inhibition. […] The indicated Ki values are averages of the inhibition constants calculated on the basis of 2 to 4 independent dose-effect plots. […]
pKi: −log10 of the molar value.

O=C(NCc1ccco1)C(=O)C(Cc1ccccc1)NC(=O)[C@H]1CCC(=O)N1Cc1ccccc1 (mixture of isomers) | 7.00 to 7.30
O=C(NC1CC1)C(=O)C(Cc1ccccc1)NC(=O)[C@H]1CCC(=O)N1Cc1c(Cl)cccc1Cl (mixture of isomers) | 6.22 to 7.00
C[C@H]1C[C@H](C(=O)NC(Cc2ccccc2)C(=O)C(N)=O)N(Cc2ccccc2)C1=O (some centres unmarked) | > 7.30

Param item = NC(=O)C(=O)C(Cc1ccccc1)NC(=O)[C@H]1CCC(=O)N1Cc1cccc2ccccc12 (some centres unmarked) ; retrieve measured pKi.
> 7.30

Param item = O=C(NC1CC1)C(=O)C(Cc1ccccc1)NC(=O)[C@H]1CCC(=O)N1Cc1ccccc1Cl (mixture of isomers) ; retrieve measured pKi.
7.00 to 7.30

Param item = NC(=O)C(=O)C(Cc1ccccc1)NC(=O)[C@@H]1CCC(=O)N1Cc1ccccc1 (some centres unmarked) ; retrieve measured pKi.
6.22 to 7.00

Param item = O=C(NCc1ccc(F)cc1)C(=O)C(Cc1ccccc1)NC(=O)[C@H]1CCC(=O)N1Cc1ccccc1 (mixture of isomers) ; retrieve measured pKi.
> 7.30

Param item = NC(=O)C(=O)C(Cc1ccccc1)NC(=O)[C@H]1CCC(=O)N1Cc1c(F)cccc1F (some centres unmarked) ; retrieve measured pKi.
7.00 to 7.30

Param item = COc1cccc(C(F)(F)F)c1CN1C(=O)CC[C@@H]1C(=O)NC(Cc1ccccc1)C(=O)C(=O)NC1CC1 (mixture of isomers) ; retrieve measured pKi.
6.22 to 7.00

Param item = O=C(NCc1nc2ccccc2s1)C(=O)C(Cc1ccccc1)NC(=O)[C@H]1CCC(=O)N1Cc1ccccc1 (some centres unmarked) ; retrieve measured pKi.
7.00 to 7.30

Param item = O=C(NCc1ccccn1)C(=O)C(Cc1ccccc1)NC(=O)[C@H]1CCC(=O)N1Cc1ccccc1 (some centres unmarked) ; retrieve measured pKi.
7.00 to 7.30
